# study_target: Amyloid-beta precursor protein (Homo sapiens)
# Sequence (P05067 whole entry): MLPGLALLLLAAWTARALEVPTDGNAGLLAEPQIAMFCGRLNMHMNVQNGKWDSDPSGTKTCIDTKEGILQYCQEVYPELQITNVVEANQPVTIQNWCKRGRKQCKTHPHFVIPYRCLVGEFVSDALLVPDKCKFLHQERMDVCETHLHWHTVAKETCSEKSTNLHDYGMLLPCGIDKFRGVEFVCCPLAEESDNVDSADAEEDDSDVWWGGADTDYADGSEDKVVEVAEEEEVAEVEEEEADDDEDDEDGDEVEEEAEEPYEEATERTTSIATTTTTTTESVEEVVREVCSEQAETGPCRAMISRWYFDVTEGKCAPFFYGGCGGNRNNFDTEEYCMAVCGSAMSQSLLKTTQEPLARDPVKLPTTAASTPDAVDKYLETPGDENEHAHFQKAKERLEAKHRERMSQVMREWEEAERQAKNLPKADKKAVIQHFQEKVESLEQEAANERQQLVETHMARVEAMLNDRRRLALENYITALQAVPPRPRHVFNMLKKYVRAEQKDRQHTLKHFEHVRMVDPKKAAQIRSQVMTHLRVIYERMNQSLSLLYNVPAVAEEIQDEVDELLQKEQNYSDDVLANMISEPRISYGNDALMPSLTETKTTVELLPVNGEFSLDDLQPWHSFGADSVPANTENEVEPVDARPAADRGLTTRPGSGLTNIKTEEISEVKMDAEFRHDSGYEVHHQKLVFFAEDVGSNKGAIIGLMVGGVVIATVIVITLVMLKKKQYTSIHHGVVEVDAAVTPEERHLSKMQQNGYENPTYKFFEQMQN
# experiment_summary: Inhibition of Cu2+-induced amyloid beta (1 to 42) (unknown origin) aggregation at 25 uM after 24 hrs by thioflavin-T fluorescence method
property: inhibition (%)

compound: CN1CCN(c2ccc(/C=C3\Oc4cc(O)cc(O)c4C3=O)cc2)CC1
property: inhibition
unit_annotation: %
measured_value: 52

(A) CN(C)c1ccc(/C=C2\Oc3cc(O)cc(O)c3C2=O)cc1
(B) O=C1c2c(O)cc(O)cc2OC1Cc1ccc(N2CCOCC2)cc1 (stereo not drawn)
### Prompt Endpoint returns whichever of A and B has the numerically higher inhibition. Your answer should be the label attached to the chosen record.
### Response A
